tested system: 5-hydroxytryptamine receptor 2B (Rattus norvegicus)
protocol description: Binding affinity to 5-HT2B in Rattus norvegicus CD (rat) stomach fundus sections after 1 hr
measured metric: pKb
API note: the answer field is a bare number with no unit suffix.

molecule	tested system	pKb
COc1ccc(CCc2nc3ccccc3o2)cc1OC	5-hydroxytryptamine receptor 2B (Rattus norvegicus)	5.59

Query: Return reported pKb. Input molecule: c1ccc(CCc2nc3ccccc3o2)cc1
Response: 5.23

Query: Check the records and state pKb for COc1ccc(CC(O)c2nc3ccccc3s2)cc1OC (stereo not drawn)
Response: 5.16

Query: Respond only with pKb recorded for OC(Cc1ccccc1)c1nc2ccccc2[nH]1 (stereo not drawn)
Response: 5.16

Query: Identify pKb associated with the molecule COc1ccc(CCc2nc3ccccc3[nH]2)cc1OC
Response: 5.84

Query: Return reported pKb. Input molecule: COC(=O)[C@@H]1[C@H]2C[C@H]3c4[nH]c5ccccc5c4CCN3C[C@@H]2CC[C@@H]1O
Response: 7.74

Query: Item CCNC(Cc1ccccc1)c1nc2ccccc2[nH]1 (stereo not drawn) : provide pKb
Response: 5.84

Query: Give me measured pKb, please, for this molecule: COc1ccc(CC(O)c2nc3ccccc3o2)cc1OC (stereo not drawn)
Response: 5.1

Query: Retrieve pKb measured for c1ccc(CCc2nc3ccccc3[nH]2)cc1 and print it.
Response: 5.29

Query: Report pKb for COc1ccc(CCc2nc3ccccc3s2)cc1OC
Response: 5.61

Query: Please indicate pKb recorded for O=C(Cc1ccccc1)c1cc2ccccc2[nH]1
Response: 5.58

Query: Specify reported pKb for the molecule shown: OC(Cc1ccccc1)c1nc2ccccc2s1 (stereo not drawn)
Response: 5.25

Query: Determine from records and report pKb for c1ccc(CCc2nc3ccccc3s2)cc1
Response: 5.15

Query: Let me know recorded pKb for COc1ccc(CC2NCCc3c2[nH]c2ccccc32)cc1OC (stereo not drawn) , thanks.
Response: 9.17

Reference for the values: ChEMBL document CHEMBL3045258
